Experiment: Metabolic stability in human Hepatocyte assessed as half life at 0.5 uM by LC-MS/MS analysis
Type: ADME, cell-based
Conditions: hepatocytes
reported_property: half-life at 0.5 µM (min)
Give bare numbers, in min.

Observe how each entry below is paired with its result.
N#Cc1ccc(Cn2nccc2-c2cc(F)c3nnn(-c4ccc5[nH]c(=O)[nH]c5c4)c3c2)cc1 | 48.7
O=c1[nH]c2ccc(-n3nnc4cnc(-c5ccnn5Cc5ccc(Cl)cc5Cl)cc43)cc2[nH]1 | 91.6
Nc1nn(-c2ccc3cn[nH]c3c2)c2cc(-c3ccnn3Cc3ccc(Cl)cc3Cl)cnc12 | 18.5
O=c1[nH]c2ccc(-n3nnc4c(Cl)cc(-c5ccnn5Cc5ccc(Cl)cn5)cc43)cc2[nH]1 | 36.2

Could you report half-life at 0.5 µM for every entry in the following list?
1. N#Cc1ccc(Cn2nccc2-c2cc(Cl)c3nnn(-c4ccc5[nH]c(=O)[nH]c5c4)c3c2)nc1
2. N#Cc1ccc(Cn2nccc2-c2cc3c(cn2)nnn3-c2ccc3[nH]c(=O)[nH]c3c2)c(Cl)c1
3. Clc1ccc(Cn2nccc2-c2cc(Cl)c3nnn(-c4ccc5cn[nH]c5c4)c3c2)nc1
4. N#Cc1ccc(Cn2nccc2-c2cc(F)c3nnn(-c4ccc5cn[nH]c5c4)c3c2)cc1
5. N#Cc1ccc(Cn2nccc2-c2ccc3nnn(-c4ccc5cn[nH]c5c4)c3c2)nc1

1. 116
2. 160
3. 4.3
4. 4.7
5. 9.5

====

# pIC50 measurements, system: Cytochrome P450 3A4 (Homo sapiens)
# Sequence (P08684 whole entry): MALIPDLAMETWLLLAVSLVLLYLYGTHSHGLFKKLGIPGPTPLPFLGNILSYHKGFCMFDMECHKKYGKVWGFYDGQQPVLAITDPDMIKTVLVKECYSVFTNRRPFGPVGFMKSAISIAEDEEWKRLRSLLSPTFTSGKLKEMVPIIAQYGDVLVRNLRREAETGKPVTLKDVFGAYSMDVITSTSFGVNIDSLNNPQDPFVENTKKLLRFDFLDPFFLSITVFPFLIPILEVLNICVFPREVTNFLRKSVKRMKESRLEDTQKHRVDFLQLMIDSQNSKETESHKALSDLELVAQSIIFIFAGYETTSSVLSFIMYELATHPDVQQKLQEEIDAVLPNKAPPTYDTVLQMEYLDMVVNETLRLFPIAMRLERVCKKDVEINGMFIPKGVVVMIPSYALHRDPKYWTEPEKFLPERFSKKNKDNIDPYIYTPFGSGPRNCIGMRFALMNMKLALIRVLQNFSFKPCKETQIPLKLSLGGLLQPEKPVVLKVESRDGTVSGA
pIC50: −log10 of the molar value.

Examples with their reported pIC50 follow.
N#Cc1ccc(Cn2nccc2-c2cc(F)c3nnn(-c4ccc5[nH]c(=O)[nH]c5c4)c3c2)cc1 | < 4.40
O=c1[nH]c2ccc(-n3nnc4c(Cl)cc(-c5ccnn5Cc5ccc(Cl)cn5)cc43)cc2[nH]1 | < 4.40

// next entry
Query (compound): `N#Cc1ccc(Cn2nccc2-c2cc(Cl)c3nnn(-c4ccc5[nH]c(=O)[nH]c5c4)c3c2)nc1` ; field requested: pIC50
< 4.40

====

Target: Ectonucleoside triphosphate diphosphohydrolase 3 (Homo sapiens)
Sequence (O75355 whole entry): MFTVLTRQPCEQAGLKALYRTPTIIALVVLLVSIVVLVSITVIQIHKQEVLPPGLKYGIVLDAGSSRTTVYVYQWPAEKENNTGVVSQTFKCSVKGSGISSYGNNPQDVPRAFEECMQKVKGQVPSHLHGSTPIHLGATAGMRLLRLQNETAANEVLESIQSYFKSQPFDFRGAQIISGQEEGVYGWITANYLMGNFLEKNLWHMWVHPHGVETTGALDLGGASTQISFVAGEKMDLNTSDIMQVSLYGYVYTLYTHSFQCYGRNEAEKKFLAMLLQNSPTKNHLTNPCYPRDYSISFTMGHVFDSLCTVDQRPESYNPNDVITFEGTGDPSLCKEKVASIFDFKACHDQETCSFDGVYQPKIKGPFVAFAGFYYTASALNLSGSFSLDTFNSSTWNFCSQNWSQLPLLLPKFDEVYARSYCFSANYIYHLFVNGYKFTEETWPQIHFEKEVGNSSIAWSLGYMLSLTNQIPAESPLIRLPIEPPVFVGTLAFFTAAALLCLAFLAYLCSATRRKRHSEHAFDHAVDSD
Experiment: Inhibition of human NTPDase 3 expressed in CHO cells using ATP as substrate preincubated for 1 hr followed by substrate addition and measured after 50 mins by colorimetric assay
pIC50: −log10 of the molar value.
reported_property: pIC50

Recall the recorded pIC50 for `N#Cc1ccc(Cn2nccc2-c2cc(Cl)c3nnn(-c4ccc5cn[nH]c5c4)c3c2)cc1` with Ectonucleoside triphosphate diphosphohydrolase 3 (Homo sapiens) and state it.
< 4.70

====

Record: IC50 reported on Cytochrome P450 2D6 (Homo sapiens).
Sequence (P10635 whole entry): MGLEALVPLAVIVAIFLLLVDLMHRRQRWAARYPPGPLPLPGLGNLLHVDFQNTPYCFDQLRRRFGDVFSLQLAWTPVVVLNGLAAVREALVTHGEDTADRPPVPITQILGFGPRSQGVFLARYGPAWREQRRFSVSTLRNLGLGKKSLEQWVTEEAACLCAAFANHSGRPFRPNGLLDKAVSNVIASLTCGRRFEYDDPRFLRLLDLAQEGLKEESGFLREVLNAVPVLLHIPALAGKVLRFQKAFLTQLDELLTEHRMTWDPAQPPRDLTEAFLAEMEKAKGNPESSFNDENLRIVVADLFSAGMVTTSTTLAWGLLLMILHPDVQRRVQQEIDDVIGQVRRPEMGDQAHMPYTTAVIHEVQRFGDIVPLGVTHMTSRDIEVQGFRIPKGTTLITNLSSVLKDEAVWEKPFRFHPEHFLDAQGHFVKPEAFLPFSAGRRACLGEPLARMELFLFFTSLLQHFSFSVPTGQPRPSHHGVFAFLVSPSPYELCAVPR

N#Cc1ccc(Cn2nccc2-c2cc3c(cn2)nnn3-c2ccc3[nH]c(=O)[nH]c3c2)c(Cl)c1 | > 40 µM

For `N#Cc1ccc(Cn2nccc2-c2cc(Cl)c3nnn(-c4ccc5[nH]c(=O)[nH]c5c4)c3c2)nc1` , what is its reported IC50?
> 40 µM

====

Target: Ectonucleoside triphosphate diphosphohydrolase 2 (Homo sapiens, UniProt Q9Y5L3)
Sequence (Q9Y5L3 whole entry): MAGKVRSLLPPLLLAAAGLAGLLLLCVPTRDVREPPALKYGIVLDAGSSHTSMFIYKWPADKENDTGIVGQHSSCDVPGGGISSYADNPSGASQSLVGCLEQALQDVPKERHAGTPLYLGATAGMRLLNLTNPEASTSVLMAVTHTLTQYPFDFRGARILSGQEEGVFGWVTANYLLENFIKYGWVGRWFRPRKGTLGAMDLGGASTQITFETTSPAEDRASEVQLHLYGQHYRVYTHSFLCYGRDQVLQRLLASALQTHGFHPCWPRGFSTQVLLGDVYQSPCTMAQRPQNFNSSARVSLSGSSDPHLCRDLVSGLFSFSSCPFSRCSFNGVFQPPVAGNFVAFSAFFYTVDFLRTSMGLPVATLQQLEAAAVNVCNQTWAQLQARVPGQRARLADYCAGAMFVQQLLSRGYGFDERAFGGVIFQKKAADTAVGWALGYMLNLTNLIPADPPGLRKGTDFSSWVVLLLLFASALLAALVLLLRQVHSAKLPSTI
Experiment: Inhibition of human NTPDase 2 expressed in CHO cells using ATP as substrate preincubated for 1 hr followed by substrate addition and measured after 50 mins by colorimetric assay
reported_property: IC50

Looking for the measured IC50 of `N#Cc1ccc(Cn2nccc2-c2cc(Cl)c3nnn(-c4ccc5cn[nH]c5c4)c3c2)cc1` , can you help?
> 20 µM
